Reported Property: melting point

CCC1=NC(=NOC(=O)NC)SC1(C)C : 98 to 100 °C

# melting point lookup, item COc1cc(C(=O)O)ccc1Cn1nc(OC)c2ccc(NC(=O)OC3CCCC3)cc21
199 to 200 °C

# melting point lookup, item COc1nc(C)nc(NC(=O)NS(=O)(=O)c2ccccc2OCC(Cl)CCl)n1 (stereo not given)
117 to 118 °C

# melting point lookup, item COCc1cc(-n2cc(-c3ccc(-c4ccco4)cc3)c(C(F)(F)F)n2)ccc1S(C)(=O)=O
142 to 143 °C

# melting point lookup, item N#CCc1c[nH]c2ccc(N)cc12
125 to 130 °C

# melting point lookup, item CC1(C)OC(=O)Nc2ccc(-c3cc(F)cc([N+](=O)[O-])c3)cc21
260 to 261 °C

# melting point lookup, item CN(C)C(=O)c1nn(-c2ccncc2)c(=O)c2c1c1ccc(Cl)cc1n2C
276 to 278 °C

# melting point lookup, item CN1Cc2c(CCl)ncn2-c2ccccc2C1=O
277 to 280 °C

# melting point lookup, item CCc1ccc(OCc2ccc(CO)c(CO)c2)cc1-c1ccc(C(O)(CC)CC)cc1C(C)C
109 °C

# melting point lookup, item COc1cc(OC)cc(-c2cc(=O)c3ccc(OCC(O)CNC(C)(C)C)cc3o2)c1 (stereo not given)
145 to 146 °C
